Tested on: Aerobactin synthetase IucA (Klebsiella pneumoniae, hypervirulent)
Assay: IucA enzyme inhibition, biochemical, LOPAC library, absorbance readout (AID 1346212);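 also: 100% = no compound wells and 0% = no enzyme wells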
Conditions: IucA enzyme assay, absorbance (OD) readout; stronger effect = lower value; concentration not given here
value.type: remaining activity (%)
A number alone suffices; assume %.

// known answers, use as guide
Nc1cc(Cl)c(NC2=NCCN2)c(Cl)c1 : 118
Nc1ncnc2c1ncn2[C@@H]1O[C@H](CO)[C@@H](O)[C@H]1O : 110
CC(C)(CO)Cc1cc(C(C)(C)C)c(O)c(C(C)(C)C)c1 : 109
OCc1cc(C(O)CNCCCCCCOCCCCc2ccccc2)ccc1O (configuration not stated) : 122
NC1(C(=O)O)CCc2cc(C(=O)O)ccc21 (configuration not stated) : 110
COc1ccc(C2CNC(=O)C2)cc1OC1CCCC1 (configuration not stated) : 91.4
Cn1c(=O)c2[nH]c(-c3ccccc3)nc2n(C)c1=O : 124
CP(=O)(O)C1=CCNCC1 : 95.4
NC(N)=NC(N)=Nc1ccccc1 : 101
c1ccc2c(N3CCNCC3)cccc2c1 : 77.2

For CC[C@H](C)[C@H]1O[C@]2(CC[C@@H]1C)C[C@@H]1C[C@@H](C/C=C(\C)[C@@H](O[C@H]3C[C@H](OC)[C@@H](O[C@H]4C[C@H](OC)[C@@H](O)[C@H](C)O4)[C@H](C)O3)[C@@H](C)/C=C/C=C3\CO[C@@H]4[C@H](O)C(C)=C[C@@H](C(=O)O1)[C@]34O)O2 the molecule record lists remaining activity as 114

For OC1(c2ccc(Cl)cc2)CCN(Cc2c[nH]c3ccccc23)CC1 the molecule record lists remaining activity as 112

###

Test: sensitizers of A549 cells to miR-34 induction, primary screen, imaging, A549 dox-inducible miR-34, nuclei and caspase counts (AID 1347080)
Conditions: A549 miR-34 inducible, Hoechst nuclei count, 48 h; measured here: relative caspase fold change +Dox/-Dox
fold change values for the compounds below.
API note: the answer field is a bare number with no unit suffix.

// known answers, use as guide
CCCCC/C=C\C/C=C\C/C=C\C/C=C\CCCC(=O)Nc1cccc(O)c1 : 0.281
N#CC(C#N)=NNc1ccc(OC(F)(F)F)cc1 : 0.834
C=C(C)[C@H]1O[C@H]2CC[C@@]3(C)[C@@](O)(CC[C@H]4[C@@H]5OC(C)(C)[C@H]6C[C@@H]7C(=C)Cc8c(Cl)cc9[nH]c(c5c9c8[C@@]76O)[C@@]43C)[C@]23O[C@@H]3[C@H]1O : 1.48
c1cc2cc(N3CCNCC3)ccc2cn1 : 0.665

# next compound below
For CN(C)C(=S)SSC(=S)N(C)C the compound record lists fold change as 4.9

###

System: Aerobactin synthetase IucA (Klebsiella pneumoniae hvKP1)
Assay: Biochemical IucA enzyme inhibition primary screen of the Spectrum library (AID 1346200);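 also: 100% = wells without compound and 0% = wells lacking enzyme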
Details: malachite green pyrophosphate, A620, at 8 µM, stronger effect = lower value
activity remaining values for the compounds below.
A number alone suffices; assume %.

// known answers, use as guide
CC(=O)O[C@@H]1CC2C(C)(CC[C@H](O)C2(C)C)C2CC[C@]3(C)C(=CC(=O)O[C@H]3c3ccoc3)C21C (some centres undefined) : 95.5
CC(=O)O[C@H]1CC[C@@]2(C)C(=CCC3C2CC[C@]2(C)C(=O)CCC32)C1 (some centres undefined) : 103

For Nc1nc2c(c(=O)[nH]1)NC(CNc1ccc(C(=O)N[C@H](CCC(=O)O)C(=O)O)cc1)=CN2 the compound record lists activity remaining as 102

For COc1cc(OC)cc(OC)c1 the compound record lists activity remaining as 117

For C=CC(N)CCC(=O)O (centres undefined) the compound record lists activity remaining as 119
